Test system: NCI-H226
Assay procedure: NCI tumour cell line growth inhibition, 48 h
Calls of active or inactive are those of the source. No stated cut-off is given here; in the data, active = GI50 up to about 1.1 µM and inactive = higher.
For each of the compounds below, state its GI50.

In: Please provide the recorded GI50 for `O=C(CCc1ccc(O)cc1)NCCc1ccc(O)cc1` , tested on NCI-H226.
Out: > 100 µM (inactive)

In: Please provide the recorded GI50 for `N#CC1(c2ccccc2)CCN(C2(c3ccccc3)CCCCC2)CC1` , tested on NCI-H226.
Out: > 100 µM (inactive)

In: Please provide the recorded GI50 for `Cc1ccccc1/N=N/c1c(-c2ccccc2)nn(C(=O)CC(=O)Nc2cccc(Cl)c2)c1-c1ccccc1` , tested on NCI-H226.
Out: 16 µM (inactive)

In: Please provide the recorded GI50 for S=C1OC2CCCC[C@H]2O1 (stereo partly specified) , tested on NCI-H226.
Out: > 100 µM (inactive)

In: Please provide the recorded GI50 for `CN(C)Cc1cc(/N=N/c2ccc(Cl)cc2)ccc1O` , tested on NCI-H226.
Out: 14.6 µM (inactive)

In: Please provide the recorded GI50 for COc1ccc(/C(=C/n2ccnc2)C(O)c2ccc(OC)c(OC)c2)cc1OC (stereo unspecified) , tested on NCI-H226.
Out: > 100 µM (inactive)
